Test system: DU-145
MEASUREMENT_NOTES: NCI tumour cell line growth inhibition, 48 h
The source made the active and inactive calls. No stated cut-off is given here; in the data, active = GI50 up to about 1.1 µM and inactive = higher.
# maps each entry to its GI50

# COMPOUND, GI50
data = [
    ("O=C1Nc2ccccc2C1(O)Cc1ccccn1 (centres undefined)", "> 100 µM (inactive)"),
    ("COc1ccccc1Cc1ccc(C2C=CC3(CC(=O)C=C3C)C(=O)C2)o1 (centres undefined)", "29.4 µM (inactive)"),
    ("COC(=O)Nc1nc2cc(S(=O)(=O)N3CCOCC3)ccc2[nH]1", "> 100 µM (inactive)"),
    ("CC1/C=C/C=C/CC/C=C/C=C/C=C/C=C/C(OC2OC(C)C(O)C(N)C2O)CC2OC(CC(O)C(O)CCC(O)CC(O)CC(O)CC(=O)OC(C)C(C)C1O)CC(O)C2C(=O)O (centres undefined)", "17.7 µM (inactive)"),
    ("CCOC(=O)CCSS(=O)(=O)C(F)(F)F", "> 100 µM (inactive)"),
]

Per the record, Clc1ccc(C(SCc2ccccc2)SCc2ccccc2)cc1 has GI50 of > 10 µM (inactive)

Per the record, CC(C)(C)N1NC1C1NN1C(C)(C)C (centres undefined) has GI50 of > 100 µM (inactive)

Per the record, COC(=O)[C@@H]1O[C@]12[C@@H](CO[Si](C)(C)C(C)(C)C)O[C@@H](n1cc(C)c(=O)[nH]c1=O)[C@@H]2O[Si](C)(C)C(C)(C)C has GI50 of 18.2 µM (inactive)

Per the record, c1ccc2c(c1)SCCCSCCSCCCS2 has GI50 of > 100 µM (inactive)

* * *

Test system: COLO 205
MEASUREMENT_NOTES: NCI tumour cell line growth inhibition, 48 h
Active and inactive are the calls of the source. No stated cut-off is given here; in the data, active = GI50 up to about 1.1 µM and inactive = higher.
ENDPOINT_LABEL: GI50

Per the record, CC(C)=CCC[C@](C)(O[C@@H]1O[C@H](CO)[C@@H](O)[C@H](O)[C@H]1O)[C@H]1CC[C@]2(C)[C@@H]1[C@H](O)C[C@@H]1[C@@]3(C)CC[C@H](O)C(C)(C)[C@@H]3[C@@H](O[C@@H]3O[C@H](CO)[C@@H](O)[C@H](O)[C@H]3O)C[C@]12C [GINSENOSIDE RG1] has GI50 of > 100 µM (inactive)

Per the record, CN1CC[C@]2(c3cccc(O)c3)CC(=O)/C(=C/c3ccc(Cl)c(Cl)c3)[C@@H]1C2 has GI50 of 1.6 µM (inactive)

Per the record, O=C(NC(Cc1ccc(I)cc1)C(=O)O)c1ccc(I)cc1 (centres undefined) has GI50 of > 100 µM (inactive)

Per the record, CSCCCNC(=O)c1csc([C@@H](CSC)NC(=O)CCNC(=O)[C@@H](NC(=O)OCC(Br)(Br)Br)C(C)O)n1 (some centres undefined) has GI50 of > 100 µM (inactive)

Per the record, C=C1C(=O)O[C@@H]2C(=O)[C@@H](C)CCC/C(C)=C/CC[C@@]3(C)O[C@@H]3C[C@@H]12 has GI50 of 24 µM (inactive)

* * *

System: PC-3
MEASUREMENT_NOTES: NCI tumour cell line growth inhibition, 48 h
Active and inactive are the calls of the source. Cut-off read from the data, not from the text of the source: active = GI50 up to about 1.1 µM and inactive = higher.
Lab note: assign the record to one of T = active, F = inactive

# MOLECULE, QUALITATIVE_LABEL
measured = [
    ("CC1(C)CC(=O)C(C(CC(c2ccccc2)c2cc3c(cc2O)OCO3)C2=C(O)CC(C)(C)CC2=O)=C(O)C1 (stereo not given)", "F"),
    ("COc1cc(-c2cc(O)c(-c3ccc4ccccc4n3)c(O)n2)cc(OC)c1OC", "F"),
    ("C=C1c2ccccc2Oc2nc3nc(N)c(C#N)c(N)c3c(N)c21", "F"),
    ("O=c1cc(-c2ccccc2)oc2ccc(Oc3nnnn3-c3ccccc3)cc12", "F"),
    ("CC1(C)[C@@H]2CC[C@]1(C)[C@H](OC(=O)/C=C/c1ccccc1)C2", "F"),
    ("Cc1cccc(/C=N\\NC(=S)N2CCCCC2)n1", "T"),
    ("COC(=O)c1ccc(C)cc1CC1Cc2c(C)cccc2C1=O (stereo not given)", "F"),
    ("Cc1cc(C)nc(NS(=O)(=O)c2ccc(Nc3c4ccccc4nc4c(C(=O)NCCO)cccc34)cc2)n1", "F"),
]

Problem: Check the results log: what was the call for Cc1cc([C@H](C#N)c2nc3ccccc3s2)nc(Cl)n1 ?
Result: F

Problem: Check the results log: what was the call for NC1CC(=O)c2cc(Br)sc21 (stereo not given) ?
Result: F

* * *

System: Malme-3M
MEASUREMENT_NOTES: NCI tumour cell line growth inhibition, 48 h
Activity calls are given as the source filed them. No stated cut-off is given here; in the data, active = GI50 up to about 1.1 µM and inactive = higher.
ENDPOINT_LABEL: GI50

Worked set:
# COMPOUND, GI50
measured = [
    ("C[N+]1(C)C2CC(OC(=O)C(CO)c3ccccc3)CC1C1OC12 (stereo unspecified)", "> 100 µM (inactive)"),
    ("COC(=O)Nc1nc2cc(S(=O)(=O)N3CCOCC3)ccc2[nH]1", "> 100 µM (inactive)"),
    ("COC1C(CN[N+](=O)CC2OC3OC(C)(C)OC3C2OC)OC2OC(C)(C)OC21 (stereo unspecified)", "> 100 µM (inactive)"),
    ("CCCn1c(=O)c(N2CCN(c3ccccc3)CC2)nc2sc3ccccc3c21", "> 100 µM (inactive)"),
    ("Nc1ncnc2c1ncn2C(=O)NC12CC3CC(CC(C3)C1)C2", "> 100 µM (inactive)"),
]

Now look at this one.
Per the record, NC(=S)N/N=C1\CCCC1C(O)(C(F)(F)Cl)C(F)(F)Cl (stereo unspecified) has GI50 of > 10 µM (inactive)

* * *

Tested on: MOLT-4
MEASUREMENT_NOTES: NCI tumour cell line growth inhibition, 48 h
Activity calls are given as the source filed them. No stated cut-off is given here; in the data, active = GI50 up to about 1.1 µM and inactive = higher.
Lab note: assign the record to one of active, inactive

# MOLECULE, QUALITATIVE_LABEL
data = [
    ("O=[N+]([O-])c1cccc2nc3ccccc3c(NCCNCCO)c12", "active"),
]

Problem: Check the results log: what was the call for CCOC(=O)C1(C(=O)OCC)C[C@H](C)[C@](C)(O)C1 ?
Result: inactive

Problem: Check the results log: what was the call for O=C(O)c1cnc2c(ccc3ncc(C(=O)O)c(O)c32)c1O ?
Result: inactive

Problem: Check the results log: what was the call for CN(C)c1ccc(/C=C2\C[C@H]3[C@@H]4CC=C5C[C@@H](N6CCCC6)CC[C@]5(C)[C@H]4CC[C@]3(C)[C@H]2O)cc1 ?
Result: inactive

Problem: Check the results log: what was the call for O=C1/C(=N\NC(=S)Nc2ccc(Cl)cc2)c2cc([N+](=O)[O-])ccc2N1CN1CCOCC1 ?
Result: active

Problem: Check the results log: what was the call for NC1CC(=O)c2cc(Br)sc21 (stereo not drawn) ?
Result: inactive

Problem: Check the results log: what was the call for C1=N\CCNCC/N=C\c2ccc(cc2)OCc2cccc(n2)COc2ccc/1cc2 ?
Result: inactive

Problem: Check the results log: what was the call for COc1ccc(NC(=O)CC(=O)N2N=C(c3ccccc3)C(/N=N/c3ccc(S(=O)(=O)CCOS(=O)(=O)O)cc3)C2=O)cc1 (stereo not drawn) ?
Result: inactive

Problem: Check the results log: what was the call for Cc1cc([C@H](C#N)c2nc3ccccc3s2)nc(Cl)n1 ?
Result: inactive

Problem: Check the results log: what was the call for O=C(O)C1Cc2ccccc2OC1=O (stereo not drawn) ?
Result: inactive

Problem: Check the results log: what was the call for NC1(c2cc3ccccc3s2)CCCCCC1 ?
Result: inactive

Problem: Check the results log: what was the call for O=C(/C=C/C=C/c1ccccc1)CCc1ccccc1 ?
Result: inactive

Problem: Check the results log: what was the call for c1ccc(C(NC2=NCCO2)C2CC2)cc1 (stereo not drawn) ?
Result: inactive

Problem: Check the results log: what was the call for CC(=O)OCC(OC(C)=O)C1C[C@H]2O[C@@H]3[C@H](C[C@H]2O1)O[C@@]1(C[C@@H]3C)C[C@H](C)[C@@H]2O[C@]3(C[C@@H]2O1)C[C@H]1O[C@H]2[C@H](C)[C@H]4OC(=O)CC5CC[C@H]6OC7[C@H]8O[C@]9(CC[C@H]%10CC(O)(CO)[C@H](CC[C@H]%11C[C@@H](C)C(O)(CO)C(C[C@@H]4O[C@H]2C[C@H]1O3)O%11)O%10)CC8O[C@@H]7[C@@H](O9)[C@H]6O5 (stereo partly drawn) ?
Result: active

Problem: Check the results log: what was the call for CC(C)N(CC(=O)O)CC(=O)O ?
Result: inactive

Problem: Check the results log: what was the call for COc1c2cc([N+](=O)[O-])cc1CN(C(=O)C(F)(F)F)CCOCCN(C(=O)C(F)(F)F)C2 ?
Result: inactive

Problem: Check the results log: what was the call for CC1(C)C2CCC(=O)C1CC2 (stereo not drawn) ?
Result: inactive

Problem: Check the results log: what was the call for COC(=O)C(=O)C1(CCC(C)=O)c2ccccc2-c2c(C)ccc(C)c21 (stereo not drawn) ?
Result: inactive
